Recorded growth values for a group of molecules are listed next.
Tested on: Clostridium sporogenes DSM 1664
Assay text: growth (OD595) fold change vs plate DMSO controls (fold change (ratio)); higher = more growth
Experimental context: incubation time: 27 h, anaerobic, 37 °C
Structures can show the parent of a compound that is named as a salt.
When you answer, write just the number.

Prompt line: Item CC[C@H](C)[C@H](NC(=O)[C@H](Cc1ccc(O)cc1)NC(=O)[C@@H](NC(=O)[C@H](CCCN=C(N)N)NC(=O)[C@@H](N)CC(=O)O)C(C)C)C(=O)N[C@@H](Cc1cnc[nH]1)C(=O)N1CCC[C@H]1C(=O)N[C@@H](Cc1ccccc1)C(=O)O [Angiotensin II (Human) Trifluoroacetic acid salt] (20 µM) has what recorded growth?
Response line: 1.02

* * *

Test system: Klebsiella aerogenes DSM 30053
Assay text: fold change of Histamine concentration vs plate DMSO controls (fold change (ratio)); higher = more amine produced, active = hit call of the paper (significant change in both replicates, either direction)
Experimental context: incubation time: 27 h, anaerobic, 37 °C
Where a name gives a salt, the structure may show the parent alone.
Documented fold change of Histamine concentration across a set of compounds
Reply with just the number.

Prompt line: Any idea what its fold change of Histamine concentration is? The compound is NC(=O)N1c2ccccc2C=Cc2ccccc21 [Carbamazepine] (20 µM)
Response line: 1.03

Prompt line: Look at this compound and give its reported fold change of Histamine concentration. CCN(CCCc1ccccc1)CCCc1ccccc1 [Alverine citrate salt] (20 µM)
Response line: 0.972

Prompt line: // fold change of Histamine concentration lookup, key: C[C@]12CC[C@@H]3c4ccc(O)cc4CC[C@H]3[C@@H]1CCC2=O [Estrone] (20 µM)
Response line: 1.07

Prompt line: fold change of Histamine concentration lookup needed for Cc1cccc(N(C)C(=S)Oc2ccc3ccccc3c2)c1 [Tolnaftate] (20 µM) , thanks.
Response line: 0.984

Prompt line: What does the record list as fold change of Histamine concentration for CC(C)c1c(C(=O)Nc2ccccc2)c(-c2ccccc2)c(-c2ccc(F)cc2)n1CC[C@@H](O)C[C@@H](O)CC(=O)O [Atorvastatin] (20 µM) ?
Response line: 1.15

Prompt line: What does the record list as fold change of Histamine concentration for NC(=O)OCC(COC(N)=O)c1ccccc1 [Felbamate] (20 µM) ?
Response line: 0.989

Prompt line: I would be grateful if you could share the reported fold change of Histamine concentration for N=C(N)N1CCc2ccccc2C1 [Debrisoquin sulfate] (20 µM) .
Response line: 1.01

Prompt line: What does the data say about its fold change of Histamine concentration? Entry: NCC[C@H](O)C(=O)N[C@@H]1C[C@H](N)[C@@H](O[C@H]2O[C@H](CN)[C@@H](O)[C@H](O)[C@H]2O)[C@H](O)[C@H]1O[C@H]1O[C@H](CO)[C@@H](O)[C@H](N)[C@H]1O [Amikacin hydrate] (20 µM)
Response line: 0.601

Prompt line: Reported fold change of Histamine concentration, compound CC(=O)O[C@]1(C(C)=O)CC[C@H]2[C@@H]3C=C(Cl)C4=CC(=O)CC[C@]4(C)[C@H]3CC[C@@]21C [Chlormadinone acetate] (20 µM) : ____
Response line: 1.04

Prompt line: Consider the compound shown here: CCc1nc(N)nc(N)c1-c1ccc(Cl)cc1 [Pyrimethamine] (20 µM) What is its recorded fold change of Histamine concentration?
Response line: 1.07

Prompt line: Quick one: fold change of Histamine concentration for COc1cc2nc(N3CCN(C(=O)C4CCCO4)CC3)nc(N)c2cc1OC (stereo unspecified) [Terazosin hydrochloride] (20 µM) ?
Response line: 1.08

Data credit: the supplement of paper PMC12494721
